subject.of.test: human Claudin-6 (CLDN6) (human) (UniProt P56747)
protocol.text: FACS, 0.3 ug Ab, 293T clone expressing human CLDN6 (2nd Ab only 768.07)
test.readout: FACS fluorescence
Give bare numbers.

Known results for binders:
{"columns": ["binder", "FACS fluorescence"],
 "data": [
  ["AB1-6 (antibody, V domains shown, humanized) VH: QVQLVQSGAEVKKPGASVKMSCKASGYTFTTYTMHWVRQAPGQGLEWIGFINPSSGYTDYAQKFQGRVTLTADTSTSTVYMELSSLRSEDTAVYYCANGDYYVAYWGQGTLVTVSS VL: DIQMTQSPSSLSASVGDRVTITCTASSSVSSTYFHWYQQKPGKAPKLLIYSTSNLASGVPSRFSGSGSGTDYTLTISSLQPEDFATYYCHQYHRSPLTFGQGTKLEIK", 120000],
  ["AB4-chim (antibody, V domains shown) VH: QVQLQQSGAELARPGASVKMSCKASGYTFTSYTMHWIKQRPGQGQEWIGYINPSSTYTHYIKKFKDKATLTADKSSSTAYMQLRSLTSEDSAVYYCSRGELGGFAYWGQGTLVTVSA VL: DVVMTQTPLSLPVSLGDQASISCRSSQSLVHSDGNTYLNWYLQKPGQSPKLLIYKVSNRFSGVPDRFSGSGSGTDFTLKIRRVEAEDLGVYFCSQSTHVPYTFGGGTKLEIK", 176000]
]}

Here is the next item to consider.
Per the records, this binder ( AB9-3 (antibody, V domains shown) VH: QVQLVQSGAEVKKPGASVKMSCKASGYRFTDYNMHWVRQAPGQGLEWIGYINPNNGGTNYAQKFQGRATLTVDTSTSTAYMELSSLRSEDTAVYYCARDYLYFFDCWGQGTLLTVSS VL: DIQMTQSPSSLSASVGDRVTITCLASQTIGTWLAWYQQKPGKAPKLLIYAAASLADGVPSRFSGSGSGTDFTFTISSLQPEDFVTYYCQQLYSIPRTFGQGTKLEIK ) has FACS fluorescence equal to 9500
